Each entry below carries its reported melting point.

>  <Compound>
N#Cc1ccc(NC(=O)c2cccc(OCc3ccc(F)cc3)c2)nc1 [Compound 216i]

>  <melting point>
170 to 171 °C

$$$$
>  <Compound>
N#Cc1ccc(NC(=O)c2cccc(OCc3ccc(F)cc3)c2)cc1 [Compound 216g]

>  <melting point>
149 to 150 °C

$$$$
>  <Compound>
CN(c1ccc(Cl)cc1)S(=O)(=O)c1cccc(C(=O)Nc2ccc(C#N)cc2F)c1 [Compound 203Ab]

>  <melting point>
158 to 159 °C

$$$$
>  <Compound>
CN(c1ccc(CN)cc1)S(=O)(=O)c1cccc(C(=O)Nc2ccc(C#N)cc2)c1.Cl [Compound 203Af]

>  <melting point>
169 to 171 °C

$$$$
>  <Compound>
O=C(Cc1ccc(Cl)cc1)c1cccc(S(=O)(=O)N2CCCCCC2)c1 [Compound 231a]

>  <melting point>
135 to 136 °C

$$$$
>  <Compound>
CSc1ccc(COc2cccc(C(=O)Nc3ccc(C#N)cc3)c2)cc1 [Compound 216a]

>  <melting point>
147 to 148 °C

$$$$
>  <Compound>
CCOc1ccc(N(CC)S(=O)(=O)c2cccc(C(=O)Nc3ccc(C#N)cc3)c2)cc1 [Compound 203Az]

>  <melting point>
168 to 169 °C

$$$$
>  <Compound>
C[C@H](Oc1cncc(C(=O)Nc2ccc(C#N)cc2)c1)c1ccc(F)cc1 [Compound 216s]

>  <melting point>
152 to 153 °C

$$$$
>  <Compound>
CN(c1ccc([S+](C)[O-])cc1)S(=O)(=O)c1cc(C(=O)Nc2ccc(Cl)cc2F)ccn1 (centres unmarked) [Compound 203Aq]

>  <melting point>
178 to 179 °C

$$$$
>  <Compound>
COc1ccc(COc2cccc(C(=O)Nc3ccc(S(C)(=O)=O)cc3)c2)cc1 [Compound 216f]

>  <melting point>
173 to 174 °C

$$$$
>  <Compound>
CN(C(=O)c1cccc(S(=O)(=O)N(C)c2ccc(Br)cc2)c1)c1ccc(Br)cc1F [Compound 203s]

>  <melting point>
136 to 137 °C

$$$$
>  <Compound>
N#Cc1ccc(NC(=O)c2ccnc(SCc3ccc(F)cc3)c2)cc1 [Compound 211e]

>  <melting point>
160 to 162 °C

$$$$
>  <Compound>
Cc1cc(Cl)ccc1N(C)C(=O)c1cccc(S(=O)(=O)N(C)c2ccc(Br)cc2)c1 [Compound 203l]

>  <melting point>
124 to 125 °C

$$$$
>  <Compound>
CN(c1ccc(Cl)cc1)S(=O)(=O)c1cccc(NC(=O)c2ccc(Br)cc2)c1 [Compound 207a]

>  <melting point>
187 to 189 °C

$$$$
>  <Compound>
CS(=O)(=O)c1ccc(COc2cccc(C(=O)Nc3ccc(C#N)cc3)c2)cc1 [Compound 216k]

>  <melting point>
209 to 210 °C

$$$$
>  <Compound>
COc1ccc(COc2cccc(C(=O)Nc3ccc(C#N)cn3)c2)cc1 [Compound 216d]

>  <melting point>
132 to 134 °C

$$$$
>  <Compound>
CN(c1ccc(Cl)cc1)S(=O)(=O)c1cc(C(=O)Nc2ccc([S+](C)[O-])cc2)ccn1 (centres unmarked) [Compound 203An]

>  <melting point>
172 to 174 °C

$$$$

Hey, just so you know, these numbers are from patent US9890117B2.
